# Experiment Notes: Rhesus IV Pharmacokinetics
# Format: in vivo, rhesus monkeys
# Condition Description: rhesus monkey, plasma; male rhesus monkeys, 0.75 mg/kg IV; read-out: Cl (plasma clearance)
# Experimental: The study was conducted in male rhesus monkeys (n=4) via the intravenous route using a deuteriated (D6-Odanacatib, or D6-ODN) and non-deuteriated (D0-Odanacatib, or D0-ODN) forms of odanacatib. […] The lower limit of quantitation was 0.48 nM. Pharmacokinetic parameters were obtained using non-compartmental methods (Watson®). The plasma clearance (CLP) was calculated as the IV dose divided by the area under the plasma concentration versus time curve (AUC0-∞). […]
Task for the reader: assign each of the following compounds its reported clearance.
Express the result in mL/min/kg but write the number alone.

Query block: Need clearance of CC(C)(F)C[C@H](N[C@@H](c1ccc(-c2ccc(S(C)(=O)=O)cc2)cc1)C(F)(F)F)C(=O)NC1(C#N)CC1 [Example D0-ODN, reference compound] , thanks.
Result block: 4.6

Query block: Need clearance of `[2H]C([2H])([2H])C(F)(C[C@H](N[C@@H](c1ccc(-c2ccc(S(C)(=O)=O)cc2)cc1)C(F)(F)F)C(=O)NC1(C#N)CC1)C([2H])([2H])[2H]` , thanks.
Result block: 1.4
